Origin of the recorded values: ChEMBL document CHEMBL3351398

- Tested on: Intestine
- method_notes: Drug level in small intestine of C57BL/6 mouse assessed as cis-4-((1-(5-(5-(trifluoromethyl)-1H-benzo[d]imidazol-2-yl)pyridin-2-yl)piperidin-4-yl)oxy)cyclohexanecarboxylic acid level at 10 mg/kg, po after 24 hrs
- Type: ADME, organism-based
- Set-up: dose 10 mg/kg, route oral
- reported_conditions: in vivo, read-out: Drug uptake
measure_name: concentration (nM)

# chem_smiles, result
rows = [
    ("O=C(O)[C@H]1CC[C@H](OC2CCN(c3ccc(-c4nc5cc(C(F)(F)F)ccc5[nH]4)cn3)CC2)CC1", 76),
]

###

- Tested on: Zone of skin
- method_notes: Drug level in skin of C57BL/6 mouse assessed as cis-4-((1-(5-(5-(trifluoromethyl)-1H-benzo[d]imidazol-2-yl)pyridin-2-yl)piperidin-4-yl)oxy)cyclohexanecarboxylic acid level at 10 mg/kg, po after 24 hrs
- Type: ADME, organism-based
- Set-up: dose 10 mg/kg, route oral
- reported_conditions: in vivo, read-out: Drug uptake
measure_name: concentration

# chem_smiles, system, result
data = [
    ("O=C(O)[C@H]1CC[C@H](OC2CCN(c3ccc(-c4nc5cc(C(F)(F)F)ccc5[nH]4)cn3)CC2)CC1", "Zone of skin", "18 nM"),
]

###

- system: Sterol O-acyltransferase 1 (Homo sapiens) (UniProt P35610)
- method_notes: Inhibition of human ACAT1 at 10 uM
Listed next: entries and their corresponding inhibition.

# chem_smiles, system, inhibition, %
records = [
    ("O=C(O)[C@H]1CC[C@@H](OC2CCN(c3ccc(-c4nc5cc(Cl)ccc5[nH]4)cn3)CC2)CC1", "Sterol O-acyltransferase 1 (Homo sapiens) (UniProt P35610)", 13),
    ("O=C(O)[C@H]1CC[C@@H](OC2CCN(c3ccc(-c4nc5cc(C(F)(F)F)ccc5[nH]4)cn3)CC2)CC1", "Sterol O-acyltransferase 1 (Homo sapiens) (UniProt P35610)", 22),
    ("O=C(O)[C@H]1CC[C@@H](OC2CCN(c3ccc(-c4nc5cc(F)ccc5[nH]4)cn3)CC2)CC1", "Sterol O-acyltransferase 1 (Homo sapiens) (UniProt P35610)", -2),
    ("O=C(O)[C@H]1CC[C@H](OC2CCN(c3ccc(-c4nc5cc(F)ccc5[nH]4)cn3)CC2)CC1", "Sterol O-acyltransferase 1 (Homo sapiens) (UniProt P35610)", 5),
    ("O=C(O)[C@H]1CC[C@H](OC2CCN(c3ccc(-c4nc5cc(Cl)ccc5[nH]4)cn3)CC2)CC1", "Sterol O-acyltransferase 1 (Homo sapiens) (UniProt P35610)", 4),
    ("O=C(O)[C@H]1CC[C@H](OC2CCN(c3ccc(-c4nc5cc(C(F)(F)F)ccc5[nH]4)cn3)CC2)CC1", "Sterol O-acyltransferase 1 (Homo sapiens) (UniProt P35610)", 23),
]

###

- method_notes: Drug level in skin of C57BL/6 mouse at 10 mg/kg, po after 3 hrs
- Assay type: ADME, organism-based, Zone of skin
- Parameters: dose 10 mg/kg, route oral
- reported_conditions: read-out: Drug uptake

# chem_smiles, concentration at 3 h, nM
rows = [
    ("O=C(O)[C@H]1CC[C@H](OC2CCN(c3ccc(-c4nc5cc(C(F)(F)F)ccc5[nH]4)cn3)CC2)CC1", 404),
]

###

Listed next: entries and their corresponding solubility.
- method_notes: Solubility in PBS buffer at pH 7
- Format: physicochemical
measure_name: solubility (µM)

# chem_smiles, measure_name, result_units, result
rows = [
    ("O=C(O)C(F)(F)F.O=C(O)[C@H]1CC[C@H](OC2CCN(c3ccc(-c4nc5cc(C(F)(F)F)ccc5[nH]4)cn3)CC2)CC1", "solubility", "µM", 151),
    ("O=C(O)[C@H]1CC[C@H](OC2CCN(c3ccc(-c4nc5cc(C(F)(F)F)ccc5[nH]4)cn3)CC2)CC1", "solubility", "µM", 153),
]

###

- Tested on: Liver
- method_notes: Drug level in liver of C57BL/6 mouse assessed as cis-4-((1-(5-(5-(trifluoromethyl)-1H-benzo[d]imidazol-2-yl)pyridin-2-yl)piperidin-4-yl)oxy)cyclohexanecarboxylic acid level at 10 mg/kg, po after 3 hrs
- Assay type: ADME, organism-based
- Parameters: dose 10 mg/kg, route oral
- reported_conditions: in vivo, read-out: Drug uptake

# chem_smiles, concentration [µM]
rows = [
    ("O=C(O)[C@H]1CC[C@H](OC2CCN(c3ccc(-c4nc5cc(C(F)(F)F)ccc5[nH]4)cn3)CC2)CC1", 6.91),
]

###

- method_notes: Oral bioavailability in Sprague-Dawley rat at 2 mg/kg
- Format: ADME, organism-based
- reported_conditions: in vivo

# chem_smiles, bioavailability [%]
measured = [
    ("O=C(O)[C@H]1CC[C@H](OC2CCN(c3ccc(-c4nc5cc(C(F)(F)F)ccc5[nH]4)cn3)CC2)CC1", 8),
]

###

- method_notes: Plasma concentration in Sprague-Dawley rat at 1 mg/kg, po dosed 2 hrs before lipid challenge and measured at 4 hrs by lipid tolerance test
- Format: ADME, organism-based
- Design: dose 1 mg/kg, route oral
measure_name: concentration at 4 h (nM)

# chem_smiles, measure_name, result
records = [
    ("O=C(O)[C@H]1CC[C@H](OC2CCN(c3ccc(-c4nc5cc(C(F)(F)F)ccc5[nH]4)cn3)CC2)CC1", "concentration at 4 h", 20),
]

###

- system: UniProt:P35610
- Sequence (P35610 whole entry): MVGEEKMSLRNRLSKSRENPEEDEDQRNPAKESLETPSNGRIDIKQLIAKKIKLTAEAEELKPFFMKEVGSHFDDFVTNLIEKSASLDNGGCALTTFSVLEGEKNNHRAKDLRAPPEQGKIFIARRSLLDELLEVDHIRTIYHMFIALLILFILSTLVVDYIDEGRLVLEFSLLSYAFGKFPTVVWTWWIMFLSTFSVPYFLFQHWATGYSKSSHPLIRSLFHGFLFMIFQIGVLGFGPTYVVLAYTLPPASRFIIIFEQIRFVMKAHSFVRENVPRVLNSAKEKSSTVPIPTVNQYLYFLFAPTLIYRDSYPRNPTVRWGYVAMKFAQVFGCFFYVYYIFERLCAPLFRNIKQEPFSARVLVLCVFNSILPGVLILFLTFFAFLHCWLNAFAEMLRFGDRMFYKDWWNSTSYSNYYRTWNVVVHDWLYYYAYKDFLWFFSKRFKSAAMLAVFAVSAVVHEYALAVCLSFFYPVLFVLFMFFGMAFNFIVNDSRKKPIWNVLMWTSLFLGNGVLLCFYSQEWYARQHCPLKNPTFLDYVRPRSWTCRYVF
Listed next: entries and their corresponding IC50.

# chem_smiles, system, IC50
rows = [
    ("O=C(O)[C@H]1CC[C@@H](OC2CCN(c3ccc(-c4nc5cc(F)ccc5[nH]4)cn3)CC2)CC1", "UniProt:P35610", "> 10 µM"),
    ("O=C(O)[C@H]1CC[C@@H](OC2CCN(c3ccc(-c4nc5cc(Cl)ccc5[nH]4)cn3)CC2)CC1", "UniProt:P35610", "> 10 µM"),
]

###

- method_notes: Half life in Sprague-Dawley rat at 1 mg/kg, iv or 2 mg/kg, po
- Format: ADME, organism-based
- reported_conditions: in vivo

# chem_smiles, half-life [min]
data = [
    ("O=C(O)[C@H]1CC[C@H](OC2CCN(c3ccc(-c4nc5cc(C(F)(F)F)ccc5[nH]4)cn3)CC2)CC1", 54.6),
]

###

- Tested on: Plasma
- method_notes: Drug level in plasma of C57BL/6 mouse assessed as cis-4-((1-(5-(5-(trifluoromethyl)-1H-benzo[d]imidazol-2-yl)pyridin-2-yl)piperidin-4-yl)oxy)cyclohexanecarboxylic acid level at 10 mg/kg, po after 3 hrs
- Type: ADME, organism-based
- Parameters: dose 10 mg/kg, route oral
- reported_conditions: in vivo
measure_name: concentration (nM)

# chem_smiles, result
measured = [
    ("O=C(O)[C@H]1CC[C@H](OC2CCN(c3ccc(-c4nc5cc(C(F)(F)F)ccc5[nH]4)cn3)CC2)CC1", 54),
]

###

- method_notes: Drug level in small intestine of C57BL/6 mouse at 10 mg/kg, po after 3 hrs
- Format: ADME, organism-based
- Set-up: dose 10 mg/kg, route oral
- reported_conditions: read-out: Drug uptake

# chem_smiles, concentration at 3 h
records = [
    ("O=C(O)[C@H]1CC[C@H](OC2CCN(c3ccc(-c4nc5cc(C(F)(F)F)ccc5[nH]4)cn3)CC2)CC1", "36.6 µM"),
]

###

- method_notes: Volume of distribution at steady state in Beagle dog at 1 mg/kg, iv or 4 mg/kg, po
- Format: ADME, organism-based, Canis lupus familiaris
- reported_conditions: in vivo, read-out: Vdss

# chem_smiles, Vd
records = [
    ("O=C(O)[C@H]1CC[C@H](OC2CCN(c3ccc(-c4nc5cc(C(F)(F)F)ccc5[nH]4)cn3)CC2)CC1", "4.54 L/kg"),
]
